# target: native sulfated human cationic trypsin purified from pancreatic juice (human)
# experimental details: equilibrium binding assay (free trypsin activity on a fluorogenic substrate); fixed trypsin incubated with increasing SPINK1, 0.2 ml, 0.1 M Tris-HCl (pH 8.0), 150 mM NaCl, 1 mM CaCl2, 0.05% Tween 20, 15 h; free trypsin measured with Z-Gly-Pro-Arg-AMC; apparent KD, global fit of at least three experiments
parameter: Kd (nM)

| binder | Kd, nM |
| --- | --- |
| SPINK1 mutant Y43A (natural protein) DSLGREAKCYNELNGCTKIADPVCGTDGNTYPNECVLCFENRKRQTSILIQKSGPC | 0.0622 |

(P) serine protease inhibitor Kazal type 1 (SPINK1), wildtype, C-terminal 10His tag (natural protein) DSLGREAKCYNELNGCTKIYDPVCGTDGNTYPNECVLCFENRKRQTSILIQKSGPC
(Q) SPINK1 mutant Y43R (natural protein) DSLGREAKCYNELNGCTKIRDPVCGTDGNTYPNECVLCFENRKRQTSILIQKSGPC
[ask] In terms of reported Kd, does P or Q have the smaller number? # reply format: chosen label
[reply] Q
(Q: 0.0271 nM, P: 0.0674 nM)
